Test system: NCI-H460 lung
Result category, one only: 1 (yes) (active), 0 (no) (inactive)

Some entries whose results are on file:
compound | cat
CN(C)[C@@H]1C(=O)C(C(=O)NCc2nc3[nH]cnc(=S)c3[nH]2)=C(O)[C@@]2(O)C(=O)C3=C(O)c4c(O)cccc4[C@@](C)(O)[C@H]3C[C@@H]12 | 0 (no)
C/C(=C\c1csc(C)n1)[C@@H]1C[C@@H]2O[C@]2(C)CCC[C@H](C)[C@H](O)[C@@H](C)C(=O)C(C)(C)[C@@H](O)CC(=O)N1 | 1 (yes)

QUERY: Hi team, can someone confirm the assay call for O=C1NC(=NCc2cccs2)O/C1=C\c1ccc2ncccc2c1 ?
RESULT: 0 (no)

QUERY: # iterate: CC(=O)O[C@H]1C[C@@H]2[C@@]3(C)CC[C@H]4C[C@@]4(C)[C@@H]3CC[C@@]2(C)C2=CCC3=C(COC3=O)[C@]21C
RESULT: 0 (no)

QUERY: # iterate: COc1ccccc1CNCCCN1C(=O)c2ccc3c4c(ccc(c24)C1=O)C(=O)N(CCCNCc1ccccc1OC)C3=O
RESULT: 1 (yes)

QUERY: # iterate: COc1cc(NC(=O)COc2ccccc2)c(C(N)=O)cc1OC
RESULT: 0 (no)
